src = patent US11845730B2

Measured on: human TRPV1 (Homo sapiens (Human))
Experimental parameters: read-out: IC50 (μM), antagonist effect against human TRPV1; CHO cells expressing human TrpV1; stimulated with 2.5 μM NADA (EC80); mean of at least three independent experiments
Where a name gives a salt, the structure may show the parent alone.
Quick list: IC50 per entry.
Kindly provide the numeric value in µM only, without the unit symbol.

Observe how each entry below is paired with its result.
{"Compound": "CS(=O)(=O)NCC(O)c1cc(F)c(CN[C@H]2C[C@H](Oc3ccc(F)c(C(F)(F)F)c3)C2)c2ccncc12 (stereo partly shown) [Example 66]", "Recorded result": 1.11}
{"Compound": "OCCC(CO)c1cc(F)c(CN[C@H]2C[C@H](Oc3ccc(F)c(C(F)(F)F)c3)C2)c2ccncc12 (stereo partly shown) [Example 77]", "Recorded result": 0.691}
{"Compound": "Fc1ccc2cnccc2c1CN[C@H]1C[C@H](Oc2ccnc(C(F)(F)F)c2)C1 [Example 56]", "Recorded result": 0.119}
{"Compound": "Fc1ccc2cnccc2c1CN[C@H]1C[C@H](Oc2ccc(OC(F)F)cc2)C1 [Example 30, HCl]", "Recorded result": 0.186}

## Input IC50 for N#Cc1c(O[C@H]2C[C@H](NCc3c(F)ccc4cnccc34)C2)cccc1C(F)(F)F [Example 61] ?
## Output 0.194

## Input Dear colleague, I am looking for the recorded IC50 of the following compound: OCc1cc(F)c(CN[C@H]2C[C@H](Oc3ccc(F)c(C(F)(F)F)c3)C2)c2ccncc12 [Example 6, HCl]
## Output 0.00725

## Input What IC50 value was documented for this compound, OCc1cc(F)c(CN[C@H]2C[C@@H](Oc3ccc(F)c(C(F)(F)F)c3)C2)c2ccncc12 [Example 89, HCl] ?
## Output 0.44

## Input Consider the compound O=C(O)C(O)c1cc(F)c(CN[C@H]2C[C@H](Oc3ccc(F)c(C(F)(F)F)c3)C2)c2ccncc12 (stereo partly shown) [Example 72] and give its measured IC50.
## Output 0.0521

## Input Fill blank: measured IC50 of the compound Fc1ccc2cnccc2c1CN[C@H]1C[C@H](Oc2cncc(C(F)(F)F)c2)C1 [Example 95, HCl] is ____.
## Output 0.323

## Input Data request, read-out IC50, for Fc1ccc2cnccc2c1CN[C@H]1C[C@H](Oc2ccc(C(F)(F)F)cc2)C1 [Example 76, HCl]
## Output 0.0277

## Input Name the recorded IC50 for OC[C@@H](O)c1cc(F)c(CN[C@H]2C[C@H](Oc3ccc(F)c(C(F)(F)F)c3)C2)c2ccncc12 (single isomer, unassigned; peak 1) [Example 7 peak 1] .
## Output 0.00062

## Input Name the recorded IC50 for [O-][n+]1ccc2c(CN[C@H]3C[C@H](Oc4ccc(F)c(C(F)(F)F)c4)C3)c(F)ccc2c1 [Example 73] .
## Output 0.193

## Input Please look up its IC50: Fc1ccc2cnccc2c1CN[C@H]1C[C@H](Oc2ccc(S(F)(F)(F)(F)F)cc2)C1 [Example 83, HCl]
## Output 0.207

## Input Need IC50, item CCOC(=O)c1cccc(O[C@H]2C[C@H](NCc3c(F)ccc4cnccc34)C2)c1 [Example 34, HCl]
## Output 0.0836

----------
log10(IC50) overview
Measured on: human TRPV1 (Homo sapiens (Human), UniProt Q8NER1)
Sequence (Q8NER1 whole entry): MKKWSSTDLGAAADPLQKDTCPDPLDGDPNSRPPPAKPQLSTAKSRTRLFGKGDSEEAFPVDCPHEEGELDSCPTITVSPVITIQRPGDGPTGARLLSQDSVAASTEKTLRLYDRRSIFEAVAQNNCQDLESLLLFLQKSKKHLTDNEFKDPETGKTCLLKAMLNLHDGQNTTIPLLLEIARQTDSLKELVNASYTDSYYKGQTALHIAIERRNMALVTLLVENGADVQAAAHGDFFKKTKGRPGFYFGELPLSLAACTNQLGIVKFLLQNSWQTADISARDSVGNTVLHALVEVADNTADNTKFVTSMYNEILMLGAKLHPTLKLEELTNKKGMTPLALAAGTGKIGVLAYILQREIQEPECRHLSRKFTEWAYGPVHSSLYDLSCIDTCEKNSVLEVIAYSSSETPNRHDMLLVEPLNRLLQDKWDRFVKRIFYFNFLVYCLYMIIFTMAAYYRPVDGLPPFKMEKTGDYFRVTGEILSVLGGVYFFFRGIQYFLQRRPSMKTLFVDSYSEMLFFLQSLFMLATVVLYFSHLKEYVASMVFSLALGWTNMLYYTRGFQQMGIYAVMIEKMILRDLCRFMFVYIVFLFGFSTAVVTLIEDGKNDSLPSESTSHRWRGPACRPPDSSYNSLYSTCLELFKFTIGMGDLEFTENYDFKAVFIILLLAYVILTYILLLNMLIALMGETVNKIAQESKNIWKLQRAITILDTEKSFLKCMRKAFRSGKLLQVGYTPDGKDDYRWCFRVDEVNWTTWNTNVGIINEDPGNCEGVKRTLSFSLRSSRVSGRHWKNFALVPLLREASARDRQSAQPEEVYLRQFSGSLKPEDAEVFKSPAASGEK
Experimental parameters: read-out: IC50 (μM), antagonist effect against human TRPV1; CHO cells expressing human TrpV1; stimulated with 2.5 μM NADA (EC80); mean of at least three independent experiments
Plainly stated, the numbers are log10 of IC50 given in µM.

## Input Return reported log10(IC50); argument: Nc1cc2c(CN[C@H]3C[C@H](Oc4ccc(C(F)(F)F)nc4)C3)cccc2cn1
## Output 0.00

----------
Measured on: human TRPV1 (Homo sapiens (Human), UniProt Q8NER1)
Experimental parameters: read-out: IC50 (μM), antagonist effect against human TRPV1; CHO cells expressing human TrpV1; stimulated with 2.5 μM NADA (EC80); mean of at least three independent experiments
Where a name gives a salt, the structure may show the parent alone.
Entries annotated with measured IC50

Would you please look over these solved cases?
{"Molecule": "Fc1ccc(O[C@H]2C[C@H](NCc3cccc4cnc(Cl)cc34)C2)cc1C(F)(F)F [Example 98, HCl]", "IC50": "0.418 µM"}
{"Molecule": "Fc1ccc(S[C@H]2C[C@H](NCc3cccc4cnccc34)C2)cc1C(F)(F)F [Example 99, HCl]", "IC50": "0.362 µM"}
{"Molecule": "Fc1ccc(O[C@H]2C[C@H](NCc3cccc4cncnc34)C2)cc1C(F)(F)F [Example 87, HCl]", "IC50": "0.321 µM"}

## Input Fill blank: measured IC50 of the molecule Fc1ccc2cnccc2c1CN[C@H]1C[C@H](Oc2cnc(Cl)c(C(F)(F)F)c2)C1 [Example 62] is ____.
## Output 0.336 µM

----------
Measured on: UniProt Q8NER1
Experimental parameters: read-out: IC50 (μM), antagonist effect against human TRPV1; CHO cells expressing human TrpV1; stimulated with 2.5 μM NADA (EC80); mean of at least three independent experiments
Structures can show the parent of a compound that is named as a salt.
# maps each entry to its IC50
Reply with just the number (in µM).

For orientation, consider the following solved cases.
{"Molecule": "Nc1cc2c(CN[C@H]3C[C@H](Oc4ccc(F)c(C(F)(F)F)c4)C3)c(F)ccc2cn1 [Example 14, HCl]", "IC50 (µM)": 0.00404}
{"Molecule": "NCC(O)c1cc(F)c(CN[C@H]2C[C@H](Oc3ccc(F)c(C(F)(F)F)c3)C2)c2ccncc12 (stereo partly shown)", "IC50 (µM)": 2.15}
{"Molecule": "Nc1ccc(CN[C@H]2C[C@H](Oc3ccc(F)c(C(F)(F)F)c3)C2)c2ccncc12 [Example 5, HCl]", "IC50 (µM)": 0.259}

// switching to the query molecule
## Input Request the reported IC50 associated with OCCc1cc(F)c(CN[C@H]2C[C@H](Oc3ccc(F)c(C(F)(F)F)c3)C2)c2ccncc12 [Example 10, HCl]
## Output 0.166

----------
Measured on: human TRPV1 (Homo sapiens (Human))
Experimental parameters: read-out: IC50 (μM), antagonist effect against human TRPV1; CHO cells expressing human TrpV1; stimulated with 2.5 μM NADA (EC80); mean of at least three independent experiments
Where a name gives a salt, the structure may show the parent alone.
Test readout: IC50 (µM)
Write the value in µM as a bare number.

Example entries and their recorded answers appear below.
{"Molecule": "CCc1ccc2cnccc2c1CN[C@H]1C[C@H](Oc2ccc(F)c(C(F)(F)F)c2)C1 [Example 97, HCl]", "Measured on": "human TRPV1 (Homo sapiens (Human))", "IC50 (µM)": 0.28}
{"Molecule": "Cc1ccc(O[C@H]2C[C@H](NCc3c(F)ccc4cnccc34)C2)cc1C [Example 79, HCl]", "Measured on": "human TRPV1 (Homo sapiens (Human))", "IC50 (µM)": 0.147}
{"Molecule": "N#Cc1cc(O[C@H]2C[C@H](NCc3c(F)ccc4cnccc34)C2)ccc1C(F)(F)F [Example 59]", "Measured on": "human TRPV1 (Homo sapiens (Human))", "IC50 (µM)": 0.0758}

## Input Which value of IC50 has been reported for Fc1ccc(O[C@H]2C[C@H](NCc3c(F)ccc4cnccc34)C2)cc1C(F)F [Example 91, HCl] in the records?
## Output 0.0399

----------
Measured on: human TRPV1 (Homo sapiens (Human))
Experimental parameters: read-out: IC50 (μM), antagonist effect against human TRPV1; CHO cells expressing human TrpV1; stimulated with 2.5 μM NADA (EC80); mean of at least three independent experiments
Structures can show the parent of a compound that is named as a salt.
Rule: measured IC50 below 50 nM gets T; anything equal to or greater than 50 nM gets F.

Examples with answers:
{"Compound": "Fc1ccc2cnccc2c1CN[C@H]1C[C@H](Oc2ccnc(C(F)F)c2)C1 [Example 111]", "Label": "F"}
{"Compound": "Cc1ccc(CN[C@H]2C[C@H](Oc3ccc(F)c(C(F)(F)F)c3)C2)c2ccncc12 [Example 24, HCl]", "Label": "F"}
{"Compound": "OC[C@H](O)c1cc(F)c(CN[C@H]2C[C@H](Oc3ccc(F)c(C(F)(F)F)c3)C2)c2ccncc12 (single isomer, unassigned; peak 2) [Example 7 peak 2]", "Label": "T"}
{"Compound": "OCc1cc(F)c(CN[C@H]2C[C@H](Oc3ccc4c(c3)OC(F)(F)O4)C2)c2ccncc12 [Example 47, HCl]", "Label": "T"}

## Input Item Fc1ccc2cnccc2c1CN[C@H]1C[C@H](Oc2cccc(C3(C(F)(F)F)CCO3)c2)C1 (stereo partly drawn) [Example 44] : IC50 beneath 50 nM, strictly?
## Output T

## Input # TODO verify IC50 < 50 nM strictly for this compound: OCc1ccc(CN[C@H]2C[C@H](Oc3ccc(F)c(C(F)(F)F)c3)C2)c2ccncc12 [Example 25, HCl]
## Output F

## Input Please indicate whether the reported IC50 of Fc1ccc2cnccc2c1CN[C@H]1C[C@H](Oc2nc3ccccc3s2)C1 [Example 96, HCl] is strictly below 50 nM.
## Output F
